Listed below: OD450 values for each entry.
# assay-system: T1, Human CD19-his protein (human, UniProt P15391 20-291)
# T1 construct: bought protein; also called human CD19 protein; recombinant human CD19-His; not shown: His tag
# T1 sequence (looked up): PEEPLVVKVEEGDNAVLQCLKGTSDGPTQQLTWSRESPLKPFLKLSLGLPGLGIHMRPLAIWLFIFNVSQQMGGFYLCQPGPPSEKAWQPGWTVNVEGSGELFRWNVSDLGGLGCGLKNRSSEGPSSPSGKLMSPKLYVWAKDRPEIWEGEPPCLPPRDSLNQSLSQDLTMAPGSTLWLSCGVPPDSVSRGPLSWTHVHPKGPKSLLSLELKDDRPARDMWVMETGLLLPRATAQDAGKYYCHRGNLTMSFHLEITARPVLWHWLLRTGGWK
# test-summary: ELISA, antibody at 0.10 nM

{"binder": "F3.114.12 (antibody, human IgG1, V domains shown, human-murine chimeric antibody, human IgG1) VH: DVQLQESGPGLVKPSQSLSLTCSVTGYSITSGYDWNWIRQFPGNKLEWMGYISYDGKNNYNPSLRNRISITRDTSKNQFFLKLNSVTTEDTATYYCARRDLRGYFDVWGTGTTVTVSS VL: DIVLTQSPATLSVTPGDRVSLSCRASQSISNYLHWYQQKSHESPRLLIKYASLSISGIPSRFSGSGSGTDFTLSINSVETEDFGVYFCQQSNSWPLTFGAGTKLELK", "data-value": 0.08}

Could you now look at the following binder, please?
Could you tell me which OD450 is on file for F6.5.20 (antibody, human IgG1, V domains shown, human-murine chimeric antibody, human IgG1) VH: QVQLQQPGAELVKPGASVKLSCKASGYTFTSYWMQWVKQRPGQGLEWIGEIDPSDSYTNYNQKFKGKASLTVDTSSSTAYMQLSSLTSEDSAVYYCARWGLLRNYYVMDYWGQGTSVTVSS VL: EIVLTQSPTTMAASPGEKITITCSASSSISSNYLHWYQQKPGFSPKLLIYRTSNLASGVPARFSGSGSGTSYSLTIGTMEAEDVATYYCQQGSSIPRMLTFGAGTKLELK ?
0.34
